From: patent US11932634B2

- TEST SYSTEM: human DGKα (Homo sapiens)
- Construct: inferred from the same paragraph's 'obtained from Carna Biosciences')
- Sequence (P23743 whole entry): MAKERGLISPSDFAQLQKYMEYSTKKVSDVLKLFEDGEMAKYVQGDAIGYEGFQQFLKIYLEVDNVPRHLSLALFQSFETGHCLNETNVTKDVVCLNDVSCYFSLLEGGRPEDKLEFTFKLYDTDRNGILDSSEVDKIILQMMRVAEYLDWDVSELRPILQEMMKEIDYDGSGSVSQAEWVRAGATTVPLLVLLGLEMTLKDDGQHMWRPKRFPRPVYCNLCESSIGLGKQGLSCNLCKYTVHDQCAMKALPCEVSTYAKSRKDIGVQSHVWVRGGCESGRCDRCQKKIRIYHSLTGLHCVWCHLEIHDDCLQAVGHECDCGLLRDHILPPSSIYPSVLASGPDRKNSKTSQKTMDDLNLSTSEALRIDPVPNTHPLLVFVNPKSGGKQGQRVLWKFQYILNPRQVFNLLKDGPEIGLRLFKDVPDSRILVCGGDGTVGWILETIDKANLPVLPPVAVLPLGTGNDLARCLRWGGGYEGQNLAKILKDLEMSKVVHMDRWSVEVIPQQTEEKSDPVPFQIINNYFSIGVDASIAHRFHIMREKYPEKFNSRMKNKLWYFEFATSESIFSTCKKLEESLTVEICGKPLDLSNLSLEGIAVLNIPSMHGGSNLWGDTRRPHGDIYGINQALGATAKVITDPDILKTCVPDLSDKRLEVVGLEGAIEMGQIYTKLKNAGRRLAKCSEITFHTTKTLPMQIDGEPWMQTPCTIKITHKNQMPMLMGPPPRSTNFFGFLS
- PROCEDURE TEXT: DGKα Biochemical Activity Assay (ADP-Glo);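 note: recombinant enzyme converting diacylglycerol in lipid micelles with ATP, ADP formed detected by luminescence, IC50 from a four-parameter nonlinear fit, geometric mean across experiments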
Can you tell me pIC50 for the items I'm about to list?
Note on units: pIC50 is unitless, being -log10 of a concentration expressed in mol/L.

# return pIC50 for [2H]C([2H])([2H])n1c(=O)nc(N2CCOCc3c(C#CC(C)(C)NC(=O)C(C)(C)C(F)F)cccc32)c2c(F)cccc21 , test system: human DGKα (Homo sapiens)
8.46

# return pIC50 for [2H]C([2H])([2H])n1c(=O)nc(N(CC(F)F)c2cc(F)cc(C#CC3(C(F)(F)F)CC3)c2)c2c(F)cccc21 , test system: human DGKα (Homo sapiens)
7.25

# return pIC50 for CC(C)(C#Cc1cccc(N(CC(F)F)c2nc(=O)[nH]c3cccc(F)c23)c1F)C(F)F , test system: human DGKα (Homo sapiens)
6.55

# return pIC50 for [2H]C([2H])([2H])n1c(=O)nc(N2CCCc3c(C#CC4CCN(C)C4)cccc32)c2c(F)cccc21 (centres unmarked) , test system: human DGKα (Homo sapiens)
7.15

# return pIC50 for O=c1nc(N2CCCCc3c(C#CC4(C(F)(F)F)CC4)cncc32)c2c(F)c(F)ccc2[nH]1 , test system: human DGKα (Homo sapiens)
7.75

# return pIC50 for CN(c1cncc(C#CC2(C(F)(F)F)CC2)n1)c1nc(=O)n(C)c2cc(Cl)ccc12 , test system: human DGKα (Homo sapiens)
8.54

# return pIC50 for CC(C)(C)C(O)C#Cc1cccc2c1CCCN2c1nc(=O)[nH]c2cccc(F)c12 (centres unmarked) , test system: human DGKα (Homo sapiens)
7.32

# return pIC50 for CC(C)(O)C#Cc1cccc(N(CC(F)F)c2nc(=O)[nH]c3cccc(F)c23)c1F , test system: human DGKα (Homo sapiens)
8.12
